Data provenance: PubChem BioAssay AID2315

# assay-name: A qHTS for Small Molecule Inhibitors of Shiga Toxin
# cond: Vero cells, Shiga toxin protein synthesis inhibition reporter; at 38.7 µM
Hit rate of the full screen: of about 290,000 compounds, about 27,000 (9.3%) were called active. Cut-off read from the data, not from the text of the source: active = inhibition mostly above about 28% (no sharp cut-off); inactive = mostly below about 43%. Shown is part of a subset that was picked to be rich in actives.
The categories you may choose from are true (1) for active, false (0) for inactive

INPUT: Would you mind telling me which call this test gave CCOC(=O)C1CCCN(S(=O)(=O)c2ccc3c(c2)C(C)(C)C(=O)N3C)C1 (stereo not given) ?
OUTPUT: false (0)

INPUT: Cool, now `CCc1ccc2nc(N(CCCN(C)C)C(=O)c3ccc4c(c3)OCCO4)sc2c1`
OUTPUT: false (0)

INPUT: Another compound to look at: `O=C(COc1ccc(-n2cnnn2)cc1)Nc1ccccc1Cl`
OUTPUT: false (0)

INPUT: How about `COC(=O)C(=Nc1ccccc1)/C(C(=O)C(=O)N(C)c1ccccc1)=C(\O)c1ccc(Cl)cc1` ?
OUTPUT: true (1)

INPUT: Please do the same for `Cc1ccc(OCC(=O)Nc2ccc(C(=O)O)cc2NC(=O)COc2ccc(C)c(C)c2)cc1C` as well.
OUTPUT: false (0)

INPUT: Queued: `COc1cc(NC(=O)CSc2ccc(-c3cccnc3)nn2)cc(OC)c1`
OUTPUT: false (0)

INPUT: Now give it for `C/C(=N\NC(=O)c1ccccc1C)c1ccc(N2CCOCC2)cc1` too.
OUTPUT: false (0)

INPUT: Next: `CN(C)CCN(C(=O)C1=COCCO1)c1nc2ccc(Cl)cc2s1`
OUTPUT: true (1)

INPUT: Now try `CC(C)=C(NC(=O)c1ccccc1)C(=O)N/N=C(\C)c1ccccc1O` .
OUTPUT: false (0)

INPUT: Another compound: `COc1ccc(CCNC(=O)CCc2cn(C)c3ccccc23)c(OC)c1`
OUTPUT: false (0)

INPUT: Same thing, different compound: `C=CCC1=C/C(=C\c2c(N)n3nc(CC(=O)N4CCOCC4)sc3nc2=O)C=C(OC)C1=O`
OUTPUT: false (0)

INPUT: Also `O=C(/C=C/c1ccc2c(c1)OCCO2)c1ccc(O)cc1` ?
OUTPUT: true (1)
